- Test system: LPETG (Abz-LPETGK(Dnp)-CONH2)
- procedure summary: In vitro sortase kinetics HPLC assay, LPETG substrate
- Type: biochemical
- condition details: Sub LPETG; kcat/Km of the enzyme's preferred substrate relative to kcat/Km on this substrate
This section presents molecules with their documented Rel. Activity values.
parameter measured: Rel. Activity

molecule: eSrtA(2A-9): P94R, S102C, A104H, E105D, K138P, K152I, N160K, K162H, T164N, D165A, K173E, I182V, K190E, T196S (protein) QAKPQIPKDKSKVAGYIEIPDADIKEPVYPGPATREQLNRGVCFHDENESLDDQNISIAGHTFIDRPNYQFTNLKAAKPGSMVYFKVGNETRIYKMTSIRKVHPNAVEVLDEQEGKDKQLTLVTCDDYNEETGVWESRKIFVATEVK
parameter measured: Rel. Activity
result value: 510
//
molecule: SrtA: wild-type Staphylococcus aureus sortase A (SEQ ID NO: 1) (protein, S. aureus) MKKWTNRLMTIAGVVLILVAAYLFAKPHIDNYLHDKDKDEKIEQYDKNVKEQASKDKKQQAKPQIPKDKSKVAGYIEIPDADIKEPVYPGPATPEQLNRGVSFAEENESLDDQNISIAGHTFIDRPNYQFTNLKAAKKGSMVYFKVGNETRKYKMTSIRDVKPTDVEVLDEQKGKDKQLTLITCDDYNEKTGVWEKRKIFVATEVK
parameter measured: Rel. Activity
result value: 1
//
molecule: eSrtA(4S-9): P94R, N98D, S102C, A104V, A118T, F122A, K134R, F144L, D160N, D165A, I182V, E189F, K190E, K196T (protein) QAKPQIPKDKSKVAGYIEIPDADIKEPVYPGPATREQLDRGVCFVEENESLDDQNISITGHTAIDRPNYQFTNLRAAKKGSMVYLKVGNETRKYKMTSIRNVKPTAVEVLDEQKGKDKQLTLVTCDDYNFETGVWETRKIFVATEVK
parameter measured: Rel. Activity
result value: 25
//
molecule: eSrtA (protein) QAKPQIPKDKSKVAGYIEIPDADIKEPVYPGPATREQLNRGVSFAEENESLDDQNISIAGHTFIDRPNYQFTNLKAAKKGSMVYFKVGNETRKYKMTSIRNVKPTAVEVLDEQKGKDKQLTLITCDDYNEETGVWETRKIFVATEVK
parameter measured: Rel. Activity
result value: 1
